meta.source: the supplement of paper PMC5908809

System: SNK-6 (IL-2 2.5 ng/mL)
Experiment: relative IC50 (inflection point of fitted viability curve, relative to fitted max inhibition); higher = less sensitive
Conditions: 72 h
Can you tell me relative IC50 for the items I'm about to list?
# value in nM; strip the unit string

Entry under test: C[C@@]1(C(=O)Nc2ccc(F)nc2)CCCN1c1nc(Nc2cc(C3CC3)n[nH]2)c2cccn2n1 . Its relative IC50 was 630

The reported relative IC50 of the molecule CS(=O)(=O)c1ccc(-c2cnc(N)c(C(=O)Nc3ccccc3)n2)cc1 was 795

Form field relative IC50, entry Cc1sc2c(c1C)C(c1ccc(Cl)cc1)=N[C@@H](CC(=O)OC(C)(C)C)c1nnc(C)n1-2 [(+)JQ1] : 215

Nc1ncn([C@H]2C[C@H](O)[C@@H](CO)O2)c(=O)n1 yielded relative IC50 of 31.8

Summary for this molecule, COc1ccc(C2=N[C@@H](c3ccc(Cl)cc3)[C@@H](c3ccc(Cl)cc3)N2C(=O)N2CCNC(=O)C2)c(OC(C)C)c1 : relative IC50 is 1010

Entry under test: Nc1nccc(-c2c(-c3ccc(F)cc3)ncn2C2CCCCC2)n1 . Its relative IC50 was 2170

Query CCCCC(=O)OCC(=O)[C@]1(O)Cc2c(O)c3c(c(O)c2[C@@H](O[C@H]2C[C@H](NC(=O)C(F)(F)F)[C@H](O)[C@H](C)O2)C1)C(=O)c1c(OC)cccc1C3=O yields relative IC50 of 88.1

The measured relative IC50 associated with CN(C)C1CCN(C(=O)c2ccc(NC(=O)Nc3ccc(-c4nc(N5CCOCC5)nc(N5CCOCC5)n4)cc3)cc2)CC1 reads 75.6

For record COc1cccc2c1C(=O)c1c(O)c3c(c(O)c1C2=O)C[C@@](O)(C(=O)CO)C[C@@H]3O[C@H]1C[C@H](N)[C@H](O)[C@H](C)O1 the listed relative IC50 is 41.2

The molecule FC(F)c1nc2ccccc2n1-c1nc(N2CCOCC2)nc(N2CCOCC2)n1 showed relative IC50 equal to 832

Noted for C=CCNC1=C2C[C@@H](C)C[C@H](OC)[C@H](O)[C@@H](C)/C=C(\C)[C@H](OC(N)=O)[C@@H](OC)/C=C\C=C(/C)C(=O)NC(=CC1=O)C2=O : its relative IC50 reads 106

The recorded relative IC50 for COCC(=O)NC/C=C/c1ccc2ncnc(Nc3ccc(Oc4ccc(C)nc4)c(C)c3)c2c1 is 3270

Form: molecule = N#Cc1ccc(COC[C@H]2O[C@@H](n3c(NCc4ccc(Cl)c(Cl)c4)nc4c(N)ncnc43)[C@H](O)[C@@H]2O)cc1 ; relative IC50 = 1150

Measured relative IC50 of N#CC[C@H](C1CCCC1)n1cc(-c2ncnc3[nH]ccc23)cn1 : 31.1
